- measurement_target: binding of the integrin α4 β1 to VCAM (Homo sapiens, UniProt P05556+P13612)
- Construct: endogenous in cells; host or cells: Ramos (human B-cell line) for endogenous α4β1; CHO cells stably transfected with human VCAM cDNA for the counter-receptor
- Sequence (P13612 34-1032): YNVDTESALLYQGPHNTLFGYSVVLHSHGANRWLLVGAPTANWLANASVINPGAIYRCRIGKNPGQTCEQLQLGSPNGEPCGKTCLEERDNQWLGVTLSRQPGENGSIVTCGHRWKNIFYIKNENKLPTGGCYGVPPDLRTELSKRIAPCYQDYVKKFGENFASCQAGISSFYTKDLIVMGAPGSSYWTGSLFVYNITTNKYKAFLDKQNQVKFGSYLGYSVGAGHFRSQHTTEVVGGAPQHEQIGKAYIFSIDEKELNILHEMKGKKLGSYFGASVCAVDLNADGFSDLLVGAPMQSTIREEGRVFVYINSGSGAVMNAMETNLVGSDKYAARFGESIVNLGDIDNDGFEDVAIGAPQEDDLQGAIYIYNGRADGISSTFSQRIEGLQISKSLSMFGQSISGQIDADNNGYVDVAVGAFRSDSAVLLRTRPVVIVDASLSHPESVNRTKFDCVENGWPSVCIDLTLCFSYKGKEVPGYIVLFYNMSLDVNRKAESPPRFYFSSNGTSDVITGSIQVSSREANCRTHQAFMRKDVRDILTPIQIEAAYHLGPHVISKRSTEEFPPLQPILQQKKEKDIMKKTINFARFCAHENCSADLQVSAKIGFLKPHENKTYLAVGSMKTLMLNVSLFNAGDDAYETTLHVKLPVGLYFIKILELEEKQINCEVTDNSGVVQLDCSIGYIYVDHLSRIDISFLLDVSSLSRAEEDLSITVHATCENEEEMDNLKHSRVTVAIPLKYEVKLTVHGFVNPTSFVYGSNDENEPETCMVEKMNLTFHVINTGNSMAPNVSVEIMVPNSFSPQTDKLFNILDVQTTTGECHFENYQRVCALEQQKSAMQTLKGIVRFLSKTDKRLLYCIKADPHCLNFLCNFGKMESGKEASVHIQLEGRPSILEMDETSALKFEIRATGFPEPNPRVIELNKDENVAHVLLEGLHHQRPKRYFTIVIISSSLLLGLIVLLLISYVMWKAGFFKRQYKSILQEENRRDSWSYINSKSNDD
- Sequence (P05556 21-798): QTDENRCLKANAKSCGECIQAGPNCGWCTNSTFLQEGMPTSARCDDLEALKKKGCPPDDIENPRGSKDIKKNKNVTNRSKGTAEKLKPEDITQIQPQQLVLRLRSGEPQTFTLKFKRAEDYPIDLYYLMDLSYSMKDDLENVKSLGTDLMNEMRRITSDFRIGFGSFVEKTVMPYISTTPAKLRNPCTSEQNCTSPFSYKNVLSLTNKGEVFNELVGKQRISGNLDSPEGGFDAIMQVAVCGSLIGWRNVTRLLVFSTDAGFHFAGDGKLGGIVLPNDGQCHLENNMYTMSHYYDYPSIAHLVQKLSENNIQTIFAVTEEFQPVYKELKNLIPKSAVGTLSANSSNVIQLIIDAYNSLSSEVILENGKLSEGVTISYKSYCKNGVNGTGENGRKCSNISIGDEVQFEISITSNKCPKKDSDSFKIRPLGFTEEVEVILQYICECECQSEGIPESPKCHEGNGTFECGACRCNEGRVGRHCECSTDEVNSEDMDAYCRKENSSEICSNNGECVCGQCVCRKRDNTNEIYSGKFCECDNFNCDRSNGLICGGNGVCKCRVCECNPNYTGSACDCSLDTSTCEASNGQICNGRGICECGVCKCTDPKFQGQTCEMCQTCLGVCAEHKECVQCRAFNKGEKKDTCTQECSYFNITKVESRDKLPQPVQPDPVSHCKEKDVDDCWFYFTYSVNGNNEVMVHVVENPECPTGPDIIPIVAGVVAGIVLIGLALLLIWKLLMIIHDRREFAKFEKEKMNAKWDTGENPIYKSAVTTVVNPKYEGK
- experimental_protocol: Cell-cell assay: 35S-labelled Ramos cells binding to VCAM expressing CHO cells
- Type: cell-based
- experimental_context: single concentration at which SEQ ID NO:9 gives approximately 50% inhibition of adhesion; SEQ ID NO:9 = 1.00; >2.00 indicates little or no inhibition of VCAM-α4 β1 binding
Where no end group is shown, it is not given here.
observation_type: relative quantity of adhered cells in relationship to peptide SEQ ID NO:9

Here is how some substances turned out for relative quantity of adhered cells in relationship to peptide SEQ ID NO:9.
GPEWLDDP-NH2 [SEQ ID NO:9 V→D, Gly-Pro-Glu-Trp-Leu-Asp-Asp-Pro-amide]: 2.39
GPDWLDVP-NH2 [SEQ ID NO:9 E→D, Gly-Pro-Asp-Trp-Leu-Asp-Val-Pro-amide]: 1.54
GPEWLDIP-NH2 [SEQ ID NO:9 V→I]: 1.81

a = GPEALDVP-NH2 [SEQ ID NO:9 W→A, Gly-Pro-Glu-Ala-Leu-Asp-Val-Pro-amide]
b = GPEWLQVP-NH2 [SEQ ID NO:9 D→Q, Gly-Pro-Glu-Trp-Leu-Gln-Val-Pro-amide]
Query :: Smaller relative quantity of adhered cells in relationship to peptide SEQ ID NO:9 value, a vs b ? API: response body contains the label of the selected item.
Result :: a
(a: 1.64, b: 2.35)

A = GPHWLDVP-NH2 [SEQ ID NO:9 E→H, Gly-Pro-His-Trp-Leu-Asp-Val-Pro-amide]
B = GPEWLMVP-NH2 [SEQ ID NO:9 D→M, Gly-Pro-Glu-Trp-Leu-Met-Val-Pro-amide]
Query :: Hi, I'm comparing A with B and wondering which one has the bigger number for relative quantity of adhered cells in relationship to peptide SEQ ID NO:9. Any idea? API: response body contains the label of the selected item.
Result :: B

---

- measurement_target: binding of the integrin α4 β1 to VCAM (Homo sapiens, UniProt P05556+P13612)
- Construct: endogenous in cells; host or cells: Ramos (human B-cell line) for endogenous α4β1; CHO cells stably transfected with human VCAM cDNA for the counter-receptor
- experimental_protocol: Cell-cell assay: 35S-labelled Ramos cells binding to VCAM expressing CHO cells
- Assay type: cell-based
- experimental_context: single concentration at which SEQ ID NO:9 gives approximately 50% inhibition of adhesion; SEQ ID NO:9 = 1.00; >2.00 indicates little or no inhibition of VCAM-α4 β1 binding
Where no end group is shown, it is not given here.
observation_type: relative quantity of adhered cells in relationship to peptide SEQ ID NO:9

GPEWLFVP-NH2 [SEQ ID NO:9 D→F, Gly-Pro-GluoTrp-Leu-Phe-Val-Pro-amide]: 1.94
GPSWLDVP-NH2 [SEQ ID NO:9 E→S, Gly-Pro-Ser-Trp-Leu-Asp-Val-Pro-amide]: 0.85

P = GPEWLDLP-NH2 [SEQ ID NO:9 V→L]
Q = GPEWLDYP-NH2 [SEQ ID NO:9 V→Y, Gly-Pro-Glu-Trp-Leu-Asp-Tyr-Pro-amide]
R = GPEWLDMP-NH2 [SEQ ID NO:9 V→M]
Query :: I would appreciate it if you could sort these 3 substances by relative quantity of adhered cells in relationship to peptide SEQ ID NO:9, starting from the smallest number. // respond by listing labels in the order requested
Result :: Q, P, R
(Q: 0.80, P: 1.54, R: 2.46)
